Target: HLA-B*46:01
Test: IEDB peptide-MHC binding, purified MHC/competitive/fluorescence; filed as Kd, often an IC50 or EC50 that approximates it; bounds were set here for any values at or beyond the usual limits of such assays
Settings: source organism: Homo sapiens
assay-metric: Kd

Req: Check HLA-B*46:01 data and give Kd for VTENKKIQY .
Resp: ≥ 20 µM

Req: Check HLA-B*46:01 data and give Kd for FQWHEAMFL .
Resp: ≥ 20 µM

###

Molecular target: HLA-A*02:03
Test: IEDB peptide-MHC binding, purified MHC/direct/fluorescence; filed as Kd, often an IC50 or EC50 that approximates it; bounds were set here for any values at or beyond the usual limits of such assays
Details: source organism: Vibrio parahaemolyticus AQ3810
pKd: −log10 of the molar value.
assay-metric: pKd

Req: Using the record for RLDKPLWLH , state its measured pKd.
Resp: ≤ 4.70

The values you see were collected from the Immune Epitope Database (IEDB).
